Reported Emax values follow for various molecules
Test system: GM16513 cells
Test: Catalase import immunofluorescence, high-content screening (% importing cells)
Assay type: cell-based, human
Settings: Homo sapiens, 72 h; GM16513 cells, dose response with 6 concentrations, 3 days; read-out: Max Efficacy (% Importing cells)
Write it as a number; the unit % goes unstated.

Previously resolved entries follow.
1. C#Cc1cccc(Nc2ncnc3cc(OC)c(OCCCCCCC(=O)NO)cc23)c1
100
2. O=C(NO)c1ccc(CN(c2cnccn2)c2cnccn2)cc1
100
3. O=C(CCCCCCNC(=O)c1cnc(N(c2ccccc2)c2ccccc2)nc1)NO
96
4. Nc1ccccc1NC(=O)c1ccc(CNC(=O)OCc2cccnc2)cc1
54

Moving on to the next molecule.
Data request, read-out Emax, for "Nc1cc(F)ccc1NC(=O)c1ccc(CNC(=O)/C=C/c2cccnc2)cc1"
70
